Assay method text: A549 cell viability effects, profiling panel, calcein-AM fluorescence, 48 h, basal (AID 1162); also: test concentration not given here
Stated conditions: higher = more signal
This listing pairs compounds with measured z-score.

State the recorded z-score for this entry: "CCCNC(=O)OC[C@H]1O[C@H](CCON=C2c3cc(OC)ccc3O[C@H](c3cccc(OC)c3)[C@H]2O)C=C[C@@H]1Oc1ccc(OC)cc1"
0.111

Repeat with COC(=O)[C@H](C)NC(=O)CCC1CC(OC(=O)NCc2cccc3ccccc23)CC2(CCCC(COC(=O)NCc3cccc(C(F)(F)F)c3)O2)O1 (some centres not stated)
0.826

Can you handle "CO[C@H]1COC(=O)[C@H](C)COC(=O)[C@H](C)NC(=O)CC=C[C@H]1C" next?
-0.0718

Now consider "CC(C)C(=O)N[C@H]1CCCN1C(=O)C=Cc1ccccc1" and answer again.
-0.0724

Next compound: "CCN1C(=O)[C@H]2[C@H]3[C@H](O)[C@H](O)CC(=NO[C@@H](C)c4cc(-c5c(C)cc(C)cc5C)no4)[C@@H]3CC[C@H]2C1=O"
0.165

Entry to check: "CO[C@@H]1COC(=O)[C@H](COCc2ccccc2)NC(=O)CC=C[C@@H](C)[C@H](OC)COC(=O)[C@@H](C)NC(=O)CC=C[C@H]1C"
0.759

Here is the next compound: "CC(=O)OC[C@H]1O[C@H](CC=NO[C@@H](C)c2cn([C@H](CO)Cc3ccccc3)nn2)C=C[C@@H]1OC(C)=O"
-1.04
